System: HL-60 leukemic cells
Test: Cell proliferation WST-1 assay, single dose (Example 4)
Assay type: cell-based
Conditions: 100 μM, 48 hours
Description: In addition, compounds were tested in RPMI-7951 cells, which also contain mutated BRaf and are resistant to BRaf inhibitors due to the overexpression of MAP3K8 (the gene encoding COT/Tp12) that provides an alternative mechanism to indirectly or directly activate ERK proteins. […] Cell proliferation was evaluated by water soluble tetrazolium-1 (WST-1) assay as previously described. […] After incubation, WST-1 reagent was added and absorbance was read at 450 nm with background subtraction taken at 650 nm. […]

Compound | Cell Viability (% of Vehicle) HL-60
NCCN1C(=O)S/C(=C\c2ccccc2OCc2ccccc2)C1=O [Compound 30k] | 8.3 ± 3.4 % of Vehicle
CCOc1ccc(/C=C2\SC(=O)N(C(C)CN)C2=O)cc1 (stereo not drawn) [Compound 22c] | 8.1 ± 3 % of Vehicle
CCOc1ccc(/C=C2\SC(=O)N(CCNC(C)=O)C2=O)cc1 [Compound 25a] | 106 ± 23 % of Vehicle

* * *

tested on: RPMI-7951 melanoma cells; assay: Cell proliferation WST-1 assay, single dose (Example 4); format: cell-based; details: 100 μM, 48 hours
Measured Cell Viability (% of Vehicle) RPMI-7951, listed per entry for reference.
Readout kind: Cell Viability (% of Vehicle) RPMI-7951

Compound | Study system | Val
CCOc1ccc(/C=C2\SC(=O)N(CCNCc3ccc(C#N)cc3)C2=O)cc1 [Compound 23e] | RPMI-7951 melanoma cells | 96 ± 5 % of Vehicle
[H]/N=C(/N)NCCN1C(=O)SC(=Cc2ccc(OCC)cc2)C1=O [Compound 28c] | RPMI-7951 melanoma cells | 42 ± 6 % of Vehicle
NCCN1C(=O)S/C(=C\c2ccccc2)C1=O [Compound 30a] | RPMI-7951 melanoma cells | 89 ± 17 % of Vehicle
CCCc1ccc(/C=C2\SC(=O)N(CCN)C2=O)cc1 [Compound 30e] | RPMI-7951 melanoma cells | 0.7 ± 0.1 % of Vehicle
CCOc1ccc(/C=C2\SC(=O)N(Cc3ccc(C#N)cc3)C2=O)cc1 [Compound 28m] | RPMI-7951 melanoma cells | 106 ± 8 % of Vehicle
CCOc1ccc(/C=C2\SC(=O)N(CCNC)C2=O)cc1 [Compound 23a] | RPMI-7951 melanoma cells | 54 ± 7 % of Vehicle
CCOc1ccc(/C=C2\SC(=O)N(CCN)C2=O)cc1 | RPMI-7951 melanoma cells | 0.3 ± 0.02 % of Vehicle
CCOc1ccc(/C=C2\SC(=O)N(Cc3ccncc3)C2=O)cc1 [Compound 28l] | RPMI-7951 melanoma cells | 102 ± 3 % of Vehicle
CCOc1ccc(/C=C2\SC(=O)N(Cc3ccc(N)cc3)C2=O)cc1 [Compound 28o] | RPMI-7951 melanoma cells | 102 ± 23 % of Vehicle
CCOc1ccc(/C=C2\CC(=O)N(CCN)C2=O)cc1 | RPMI-7951 melanoma cells | 19 ± 5 % of Vehicle
CCNCCN1C(=O)S/C(=C\c2ccc(OCC)cc2)C1=O [Compound 23b] | RPMI-7951 melanoma cells | 60 ± 4 % of Vehicle
CCOc1ccc(/C=C2\SC(=O)NC2=O)cc1 | RPMI-7951 melanoma cells | 144 ± 2 % of Vehicle
CCOc1ccc(/C=C2\SC(=O)N(Cc3cnc[nH]3)C2=O)cc1 [Compound 28a] | RPMI-7951 melanoma cells | 70 ± 2 % of Vehicle
CCOc1ccccc1/C=C1\SC(=O)N(CCN)C1=O [Compound 30c] | RPMI-7951 melanoma cells | 45 ± 2 % of Vehicle
CCOc1cccc(/C=C2\SC(=O)N(CCN)C2=O)c1 [Compound 30b] | RPMI-7951 melanoma cells | 30 ± 2 % of Vehicle
CCOc1ccc(/C=C2\SC(=O)N(CCNC(=O)OCc3ccccc3)C2=O)cc1 [Compound 26d] | RPMI-7951 melanoma cells | 54 ± 6 % of Vehicle
CCOc1ccc(/C=C2\SC(=O)N(CCN(C)C)C2=O)cc1 [Compound 24a] | RPMI-7951 melanoma cells | 130 ± 4 % of Vehicle
CC(C)COc1ccc(/C=C2\SC(=O)N(CCN)C2=O)cc1 [Compound 30g] | RPMI-7951 melanoma cells | 0.3 ± 0.04 % of Vehicle
CCOc1ccc(/C=C2\SC(=O)N(CCNCC(C)C)C2=O)cc1 [Compound 23c] | RPMI-7951 melanoma cells | 1.0 ± 0.1 % of Vehicle
NCCN1C(=O)S/C(=C\c2ccc(O)cc2)C1=O [Compound 30f] | RPMI-7951 melanoma cells | 24 ± 5 % of Vehicle
CCOc1ccc(/C=C2\SC(=O)N(CCNS(C)(=O)=O)C2=O)cc1 [Compound 27a] | RPMI-7951 melanoma cells | 68 ± 3 % of Vehicle
CCOc1ccc(/C=C2\SC(=O)N(Cc3cccnc3)C2=O)cc1 [Compound 28k] | RPMI-7951 melanoma cells | 102 ± 2 % of Vehicle
CCOc1ccc(/C=C2\SC(=O)N(Cc3ccc(C(=O)O)cc3)C2=O)cc1 [Compound 28q] | RPMI-7951 melanoma cells | 34 ± 3 % of Vehicle
CCOc1ccc(/C=C2\SC(=O)N(CCNC(=O)OCC(C)C)C2=O)cc1 [Compound 26c] | RPMI-7951 melanoma cells | 75 ± 12 % of Vehicle
CCOc1ccc(/C=C2\SC(=O)N(CCNC(=O)OC(C)(C)C)C2=O)cc1 [Compound 26b] | RPMI-7951 melanoma cells | 67 ± 4 % of Vehicle
NCCN1C(=O)S/C(=C\c2ccccc2OCc2ccccc2)C1=O [Compound 30k] | RPMI-7951 melanoma cells | 0.9 ± 0.1 % of Vehicle
Cc1ccc(/C=C2\SC(=O)N(CCN)C2=O)cc1 [Compound 30d] | RPMI-7951 melanoma cells | 23 ± 1 % of Vehicle
CCOc1ccc(/C=C2\SC(=O)N(CC(=O)OC(C)(C)C)C2=O)cc1 [Compound 28g] | RPMI-7951 melanoma cells | 110 ± 3 % of Vehicle
CCOc1ccc(/C=C2\SC(=O)N(C(C)CN)C2=O)cc1 (stereo not drawn) [Compound 22c] | RPMI-7951 melanoma cells | 22 ± 3 % of Vehicle
CCOc1ccc(/C=C2\SC(=O)N(CC(C)N)C2=O)cc1 (stereo not drawn) [Compound 22b] | RPMI-7951 melanoma cells | 16 ± 1 % of Vehicle

* * *

system: SK-MEL-28 melanoma cells; assay: Cell proliferation WST-1 assay, single dose (Example 4); format: cell-based; settings: 100 μM, 48 hours
Readout kind: Cell Viability (% of Vehicle) SK-MEL-28

Compound | Study system | Readout kind | Val
NCCN1C(=O)S/C(=C\c2ccccc2)C1=O [Compound 30a] | SK-MEL-28 melanoma cells | Cell Viability (% of Vehicle) SK-MEL-28 | 88 ± 7 % of Vehicle
CCOc1ccc(/C=C2\SC(=O)N(Cc3ccccn3)C2=O)cc1 [Compound 28j] | SK-MEL-28 melanoma cells | Cell Viability (% of Vehicle) SK-MEL-28 | 95 ± 3 % of Vehicle
CCOc1ccc(/C=C2\SC(=O)N(Cc3cnc[nH]3)C2=O)cc1 [Compound 28a] | SK-MEL-28 melanoma cells | Cell Viability (% of Vehicle) SK-MEL-28 | 74 ± 6 % of Vehicle
CCOc1ccc(/C=C2\SC(=O)N(CCNC(=O)OC(C)(C)C)C2=O)cc1 [Compound 26b] | SK-MEL-28 melanoma cells | Cell Viability (% of Vehicle) SK-MEL-28 | 83 ± 5 % of Vehicle
CCOc1ccc(/C=C2\SC(=O)N(CCCN)C2=O)cc1 [Compound 22a] | SK-MEL-28 melanoma cells | Cell Viability (% of Vehicle) SK-MEL-28 | 0.5 ± 0.01 % of Vehicle
CCOc1ccc(/C=C2\SC(=O)N(Cc3ccccc3C(=O)O)C2=O)cc1 [Compound 28s] | SK-MEL-28 melanoma cells | Cell Viability (% of Vehicle) SK-MEL-28 | 49 ± 8 % of Vehicle
CCOc1ccc(/C=C2\SC(=O)N(CCNC)C2=O)cc1 [Compound 23a] | SK-MEL-28 melanoma cells | Cell Viability (% of Vehicle) SK-MEL-28 | 91 ± 1 % of Vehicle
CCNCCN1C(=O)S/C(=C\c2ccc(OCC)cc2)C1=O [Compound 23b] | SK-MEL-28 melanoma cells | Cell Viability (% of Vehicle) SK-MEL-28 | 63 ± 10 % of Vehicle
CCOc1ccc(/C=C2\SC(=O)N(Cc3ccc(C(=O)O)cc3)C2=O)cc1 [Compound 28q] | SK-MEL-28 melanoma cells | Cell Viability (% of Vehicle) SK-MEL-28 | 59 ± 13 % of Vehicle
CCOc1ccc(/C=C2\SC(=O)N(Cc3cccnc3)C2=O)cc1 [Compound 28k] | SK-MEL-28 melanoma cells | Cell Viability (% of Vehicle) SK-MEL-28 | 79 ± 4 % of Vehicle
CCOc1ccccc1/C=C1\SC(=O)N(CCN)C1=O [Compound 30c] | SK-MEL-28 melanoma cells | Cell Viability (% of Vehicle) SK-MEL-28 | 52 ± 11 % of Vehicle
